Entries annotated with measured Post-emergence efficacy against ECHCG in %
System: Echinochloa crus-galli (ECHCG)
Experiment: B. Herbicidal post-emergence efficacy, ECHCG
Type: in vivo
Settings: 1280 g/ha, rated visually after about 3 weeks
Measured metric: Post-emergence efficacy against ECHCG in % (%)

Compound | Test value
CCCCS(=O)(=O)Oc1ccccc1Oc1ncc(Cl)cn1 [Example I-6] | 90
O=S(=O)(CCCCl)Oc1ccccc1Oc1ncc(Cl)cc1F [Example I-64] | 90
O=S(=O)(CCCCl)Oc1c(F)cccc1Oc1ncc(Cl)cn1 [Example I-14] | 100
CC(C)S(=O)(=O)Oc1ccccc1Oc1ncc(Cl)cn1 [Example I-18] | 90

###

Test system: Glycine max (GLXMA)
Experiment: D. Pre-emergence effect on useful plants, GLXMA
Type: in vivo
Details: useful plant, application rate 80 g/ha
Measured metric: Pre-emergence efficacy against GLXMA in % (%)

Compound | Target under test | U | Test value
CC(C)CCS(=O)(=O)Oc1ccccc1Oc1ncc(Cl)cn1 [Example I-25] | Glycine max (GLXMA) | % | 0
N#Cc1cccc(Oc2ncc(Cl)cn2)c1OS(=O)(=O)CCCC(F)(F)F [Example I-81] | Glycine max (GLXMA) | % | 0
O=S(=O)(CCCC(F)(F)F)Oc1c(Cl)cccc1Oc1ncc(Br)cn1 [Example I-34] | Glycine max (GLXMA) | % | 0
O=S(=O)(CCC(F)(F)F)Oc1c(Cl)cccc1Oc1ncc(Br)cn1 [Example I-32] | Glycine max (GLXMA) | % | 0
O=S(=O)(CCCCl)Oc1cccc(F)c1Oc1ncc(Cl)cn1 [Example I-13] | Glycine max (GLXMA) | % | 10

###

Test system: Triticum aestivum (TRZAS)
Assay: F. Post-emergence effect on useful plants, TRZAS
Assay type: in vivo
Conditions: useful plant, application rate 80 g/ha
Entries annotated with measured Post-emergence efficacy against TRZAS in %
Measured metric: Post-emergence efficacy against TRZAS in % (%)

Compound | U | Test value
O=S(=O)(CCCC(F)(F)F)Oc1c(Cl)cccc1Oc1ncc(Br)cn1 [Example I-34] | % | 0
O=S(=O)(CCCC(F)(F)F)Oc1c(F)cccc1Oc1ncc(Br)cn1 [Example I-41] | % | 0
N#Cc1cccc(Oc2ncc(Cl)cn2)c1OS(=O)(=O)CC1CC1(Cl)Cl (stereo not shown) [Example I-78] | % | 0
O=S(=O)(CC1CC1)Oc1ccccc1Oc1ncc(Cl)cn1 [Example I-23] | % | 0

###

Entries annotated with measured Pre-emergence efficacy against KCHSC
System: Kochia scoparia (KCHSC)
Assay: A. Herbicidal pre-emergence efficacy, KCHSC
Type: in vivo
Settings: pre-emergence, dosage 320 g/ha

Compound | Pre-emergence efficacy against KCHSC (%)
Cc1cccc(Oc2ncc(Cl)cn2)c1OS(=O)(=O)CCCC(F)(F)F [Example I-28] | 90
O=S(=O)(CCC(F)(F)F)Oc1c(Br)cccc1Oc1ncc(Cl)cn1 [Example I-31] | 100
O=S(=O)(CC1CC1(Cl)Cl)Oc1c(F)cccc1Oc1ncc(Cl)cn1 (stereo not shown) [Example I-57] | 100
Cc1cccc(OS(=O)(=O)CCCCl)c1Oc1ncc(Cl)cn1 [Example I-12] | 90

###

System: Setaria viridis (SETVI)
Assay: C. Herbicidal pre-emergence efficacy, SETVI
Format: in vivo
Settings: 320 g/ha, scored after about 3 weeks

Sample smiles | Pre-emergence efficacy against SETVI
CCCS(=O)(=O)Oc1ccccc1Oc1ncc(Cl)cn1 | 100%
O=S(=O)(CC1CC1)Oc1ccccc1Oc1ncc(Cl)cn1 | 100%
O=S(=O)(CC1CC(F)(F)C1)Oc1c(F)cccc1Oc1ncc(Cl)cn1 | 100%
O=S(=O)(CCl)Oc1ccccc1Oc1ncc(Cl)cn1 | 90%
O=S(=O)(CCC(F)(F)F)Oc1ccccc1Oc1ncc(Cl)cn1 | 100%
O=S(=O)(CCC1CC1)Oc1c(F)cccc1Oc1ncc(Cl)cn1 | 90%
N#Cc1cccc(Oc2ncc(Cl)cn2)c1OS(=O)(=O)CCCC(F)(F)F | 100%
O=S(=O)(CCCC(F)(F)F)Oc1c(Cl)cccc1Oc1ncc(Cl)cn1 | 100%
O=S(=O)(CCC(F)(F)F)Oc1c(Cl)cccc1Oc1ncc(Cl)cn1 | 100%
O=S(=O)(CCCC(F)(F)F)Oc1c(Cl)cccc1Oc1ncc(Br)cn1 | 100%

###

System: Zea mays (ZEAMX)
Assay: F. Post-emergence effect on useful plants, ZEAMX
Type: in vivo
Details: useful plant, application rate 80 g/ha
Entries annotated with measured Post-emergence efficacy against ZEAMX in %
Measured metric: Post-emergence efficacy against ZEAMX in % (%)

Molecule | Test value
O=S(=O)(CCl)Oc1ccccc1Oc1ncc(Cl)cn1 [Example I-9] | 20
Cc1cccc(Oc2ncc(Cl)cn2)c1OS(=O)(=O)CC1CC(F)(F)C1 [Example I-74] | 0
COCCS(=O)(=O)Oc1c(F)cccc1Oc1ncc(Cl)cn1 [Example I-52] | 0
O=S(=O)(CCCC(F)F)Oc1c(F)cccc1Oc1ncc(Cl)cn1 [Example I-56] | 20
O=S(=O)(CCC(F)=C(F)F)Oc1c(Cl)cccc1Oc1ncc(Cl)cn1 [Example I-73] | 20
O=S(=O)(CCC(F)(F)F)Oc1c(Br)cccc1Oc1ncc(F)cn1 [Example I-43] | 0
O=S(=O)(CCCC(F)(F)F)Oc1c(F)cccc1Oc1ncc(Br)cn1 [Example I-41] | 0
C=CCS(=O)(=O)Oc1ccccc1Oc1ncc(Cl)cn1 [Example I-36] | 0
Cc1cccc(Oc2ncc(Cl)cn2)c1OS(=O)(=O)CCCCl [Example I-11] | 20
O=S(=O)(CCCC(F)(F)F)Oc1c(Cl)cccc1Oc1ncc(Cl)cn1 [Example I-39] | 20
O=S(=O)(CCCCl)Oc1cccc(F)c1Oc1ncc(Cl)cn1 [Example I-13] | 20

###

System: Echinochloa crus-galli (ECHCG)
Assay: A. Herbicidal pre-emergence efficacy, ECHCG
Format: in vivo
Settings: 80 g/ha; scored visually after about 3 weeks vs untreated controls
Entries annotated with measured Pre-emergence efficacy against ECHCG

Sample smiles | Pre-emergence efficacy against ECHCG [%]
Cc1cccc(Oc2ncc(F)cn2)c1OS(=O)(=O)CCCC(F)(F)F | 100
O=S(=O)(CCC(F)(F)F)Oc1c(F)cccc1Oc1ncc(Cl)cn1 | 90
Cc1cccc(Oc2ncc(Cl)cn2)c1OS(=O)(=O)CCCC(F)(F)F | 90
O=S(=O)(CCCC(F)(F)F)Oc1c(F)cccc1Oc1ncc(F)cn1 | 100
O=S(=O)(CCCCCl)Oc1ccccc1Oc1ncc(Cl)cn1 | 100
O=S(=O)(CCCCl)Oc1c(F)cccc1Oc1ncc(Cl)cn1 | 100
CCCCS(=O)(=O)Oc1ccccc1Oc1ncc(Cl)cn1 | 100
Cc1cccc(Oc2ncc(F)cn2)c1OS(=O)(=O)CCC(F)(F)F | 90
O=S(=O)(CC1CC1)Oc1ccccc1Oc1ncc(Cl)cn1 | 90
O=S(=O)(CCC(F)(F)F)Oc1c(F)cccc1Oc1ncc(Br)cn1 | 100
O=S(=O)(CCC(F)(F)F)Oc1c(F)cccc1Oc1ncc(F)cn1 | 100

###

Tested on: Pharbitis purpurea (PHBPU)
Experiment: E. Herbicidal post-emergence efficacy, PHBPU
Format: in vivo
Conditions: application rate 320 g/ha
Measured metric: Post-emergence efficacy against PHBPU in % (%)

Sample smiles | Target under test | Test value
O=S(=O)(CCCC(F)(F)C(F)(F)F)Oc1c(F)cccc1Oc1ncc(Cl)cn1 | Pharbitis purpurea (PHBPU) | 90
O=S(=O)(CCC(F)(F)F)Oc1c(Br)cccc1Oc1ncc(F)cn1 | Pharbitis purpurea (PHBPU) | 90
O=S(=O)(CC1CC1)Oc1ccccc1Oc1ncc(Cl)cn1 | Pharbitis purpurea (PHBPU) | 100

###

System: Kochia scoparia (KCHSC)
Experiment: A. Herbicidal pre-emergence efficacy, KCHSC
Format: in vivo
Details: pre-emergence, dosage 1280 g/ha
Measured metric: Pre-emergence efficacy against KCHSC (%)

Compound | Measured metric | U | Test value
N#Cc1cccc(Oc2ncc(Cl)cn2)c1OS(=O)(=O)CC1CC(F)(F)C1 | Pre-emergence efficacy against KCHSC | % | 100
O=S(=O)(CCCC(F)(F)F)Oc1ccccc1Oc1ccc(Cl)cn1 | Pre-emergence efficacy against KCHSC | % | 90
O=S(=O)(CCC(F)(F)F)Oc1c(Cl)cccc1Oc1ncc(Cl)cn1 | Pre-emergence efficacy against KCHSC | % | 100
O=S(=O)(CC1CC1(Cl)Cl)Oc1c(F)cccc1Oc1ncc(Cl)cn1 (centres unmarked) | Pre-emergence efficacy against KCHSC | % | 100
C=CCCS(=O)(=O)Oc1c(F)cccc1Oc1ncc(Cl)cn1 | Pre-emergence efficacy against KCHSC | % | 100
O=S(=O)(CC1CC(F)(F)C1)Oc1c(Br)cccc1Oc1ncc(Cl)cn1 | Pre-emergence efficacy against KCHSC | % | 100
O=S(=O)(CCCCCl)Oc1ccccc1Oc1ncc(Cl)cn1 | Pre-emergence efficacy against KCHSC | % | 100
O=S(=O)(Oc1ccccc1Oc1ncc(Cl)cn1)C1CCCC1 | Pre-emergence efficacy against KCHSC | % | 90
CCCS(=O)(=O)Oc1ccccc1Oc1ncc(Cl)cn1 | Pre-emergence efficacy against KCHSC | % | 100
Cc1cccc(Oc2ncc(F)cn2)c1OS(=O)(=O)CCC(F)(F)F | Pre-emergence efficacy against KCHSC | % | 100
O=S(=O)(CCCC(F)(F)F)Oc1c(Br)cccc1Oc1ncc(Cl)cn1 | Pre-emergence efficacy against KCHSC | % | 100
O=S(=O)(CCCC(F)(F)F)Oc1c(F)cccc1Oc1ncc(Cl)cn1 | Pre-emergence efficacy against KCHSC | % | 100
O=S(=O)(CCCC(F)(F)F)Oc1c(Cl)cccc1Oc1ncc(Br)cn1 | Pre-emergence efficacy against KCHSC | % | 90
O=S(=O)(CCC(F)(F)F)Oc1c(Br)cccc1Oc1ncc(F)cn1 | Pre-emergence efficacy against KCHSC | % | 100
O=S(=O)(CCC(F)(F)F)Oc1c(F)cccc1Oc1ncc(Cl)cn1 | Pre-emergence efficacy against KCHSC | % | 100
O=S(=O)(CCCC(F)F)Oc1c(F)cccc1Oc1ncc(Cl)cn1 | Pre-emergence efficacy against KCHSC | % | 100
O=S(=O)(CCCCl)Oc1ccccc1Oc1ncc(Cl)cc1F | Pre-emergence efficacy against KCHSC | % | 90
CC(C)CS(=O)(=O)Oc1ccccc1Oc1ncc(Cl)cn1 | Pre-emergence efficacy against KCHSC | % | 100
Cc1cccc(Oc2ncc(Cl)cn2)c1OS(=O)(=O)CCC(F)(F)F | Pre-emergence efficacy against KCHSC | % | 100
O=S(=O)(CCl)Oc1ccccc1Oc1ncc(Cl)cn1 | Pre-emergence efficacy against KCHSC | % | 100

Values compiled from patent US20240174618A1.
